target of assay: 26S proteasome non-ATPase regulatory subunit 14 (Homo sapiens) (UniProt O00487)
Sequence (O00487 whole entry, looked up): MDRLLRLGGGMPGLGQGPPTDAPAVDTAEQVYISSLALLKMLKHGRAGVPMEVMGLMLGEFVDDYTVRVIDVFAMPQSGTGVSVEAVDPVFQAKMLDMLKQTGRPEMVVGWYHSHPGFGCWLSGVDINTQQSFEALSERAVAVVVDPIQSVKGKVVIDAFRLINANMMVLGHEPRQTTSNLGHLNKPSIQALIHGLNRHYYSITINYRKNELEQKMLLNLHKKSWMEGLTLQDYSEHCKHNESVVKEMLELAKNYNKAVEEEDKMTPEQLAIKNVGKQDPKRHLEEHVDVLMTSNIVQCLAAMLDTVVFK
assay explanation: inhibition of 26S proteasome subunit Rpn11 – biochemical, fluorescence polarization, uHTS, primary screen (AID 588493)
condition label: human 26S proteasome, Ub4-pepOG fluorescence polarization; at 20 µM; hits give high values; 20S core pre-blocked with epoxomicin
About 2,100 (0.58%) of roughly 360,000 compounds were called active. The sample holds actives, similar compounds and a random draw of the others, so the mix is not that of the screen.
assay readout: inhibition (%)

> print(dat)
                                    compound                           target.of.assay  data.value
 1  Cc1ccc(C(=O)NCC(=O)OCc2nnc(-c3ccccc3)o2)cc1  26S proteasome non-ATPase regulatory subunit 14 (Homo sapiens) (UniProt O00487)           3
 2  O=C1N=C(N2CCc3ccccc3C2)S/C1=C\c1ccc(O)cc1  26S proteasome non-ATPase regulatory subunit 14 (Homo sapiens) (UniProt O00487)        -9.2
 3  CCOc1cc(/C=C2\SC(N3CCCC(C)C3)=NC2=O)ccc1O (configuration not stated)  26S proteasome non-ATPase regulatory subunit 14 (Homo sapiens) (UniProt O00487)        62.1
 4  Cc1ccc(-c2nnc(-c3ccc(NC(=O)c4cccs4)cc3)o2)cc1  26S proteasome non-ATPase regulatory subunit 14 (Homo sapiens) (UniProt O00487)         149
 5  Cc1cc(OCC(=O)N(C)c2c(N)n(Cc3ccccc3)c(=O)[nH]c2=O)c(C(C)C)cc1Cl  26S proteasome non-ATPase regulatory subunit 14 (Homo sapiens) (UniProt O00487)        -1.8
 6        CC(C)(C)NC(=O)CSC(=Nc1ccccc1F)NC#N  26S proteasome non-ATPase regulatory subunit 14 (Homo sapiens) (UniProt O00487)        45.6
 7  CSc1ccccc1NC(=O)C(C)N1C(=O)c2ccccc2S1(=O)=O (configuration not stated)  26S proteasome non-ATPase regulatory subunit 14 (Homo sapiens) (UniProt O00487)        -7.1
 8  CC(=O)Nc1ccccc1Sc1ccc2c3c(cccc13)C(=O)N(c1ccc(C)cc1)C2=O  26S proteasome non-ATPase regulatory subunit 14 (Homo sapiens) (UniProt O00487)        48.3
 9  CC1Cc2ccccc2N1S(=O)(=O)c1cccc(C(=O)NCC(c2ccco2)N2CCCC2)c1 (configuration not stated)  26S proteasome non-ATPase regulatory subunit 14 (Homo sapiens) (UniProt O00487)         5.2
10  COc1cccc(/C=N/NC(=O)c2[nH]nc3c2CCc2ccccc2-3)c1O  26S proteasome non-ATPase regulatory subunit 14 (Homo sapiens) (UniProt O00487)        52.1
11  COC1=C/C(=C/c2c(N)n3nc(CC(=O)N4CCOCC4)sc3nc2=O)C=CC1=O  26S proteasome non-ATPase regulatory subunit 14 (Homo sapiens) (UniProt O00487)        46.9
12  COc1cc(/C=N/NC(=O)c2cccnc2)ccc1OC(=O)c1cccc(Br)c1  26S proteasome non-ATPase regulatory subunit 14 (Homo sapiens) (UniProt O00487)       -13.5
